assay.target: human full-length HSP90 (Homo sapiens, UniProt P08238)
Sequence (P08238 whole entry): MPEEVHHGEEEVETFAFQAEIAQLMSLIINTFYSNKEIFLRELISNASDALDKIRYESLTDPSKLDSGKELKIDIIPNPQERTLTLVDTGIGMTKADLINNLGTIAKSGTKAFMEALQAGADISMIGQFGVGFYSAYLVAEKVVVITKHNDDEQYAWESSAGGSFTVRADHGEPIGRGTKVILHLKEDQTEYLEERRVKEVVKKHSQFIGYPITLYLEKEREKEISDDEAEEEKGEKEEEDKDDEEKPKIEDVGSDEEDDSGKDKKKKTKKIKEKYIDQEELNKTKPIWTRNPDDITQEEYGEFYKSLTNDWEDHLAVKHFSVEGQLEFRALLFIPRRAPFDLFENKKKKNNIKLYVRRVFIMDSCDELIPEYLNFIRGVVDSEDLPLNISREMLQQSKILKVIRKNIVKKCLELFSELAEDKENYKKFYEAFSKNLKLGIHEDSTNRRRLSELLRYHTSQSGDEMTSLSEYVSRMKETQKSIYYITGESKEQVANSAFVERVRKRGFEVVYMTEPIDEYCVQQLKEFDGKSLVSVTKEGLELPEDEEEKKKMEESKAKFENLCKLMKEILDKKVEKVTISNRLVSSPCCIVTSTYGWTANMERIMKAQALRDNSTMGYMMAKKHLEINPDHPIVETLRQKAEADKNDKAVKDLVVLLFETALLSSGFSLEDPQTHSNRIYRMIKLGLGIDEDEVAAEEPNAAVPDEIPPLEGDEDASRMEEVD
Measured IC50 accompanies every entry in the list below.

Given the entry CCNC(=O)c1cc2c(C(=NOCCN3CCCC3=O)c3ccco3)nc(N)nc2s1 , what IC50 was observed with human full-length HSP90 (Homo sapiens, UniProt P08238)?
< 10 µM

Given the entry CCNC(=O)c1cc2c(C(=NOCCN(CC)CC)c3ccncc3)nc(N)nc2s1 , what IC50 was observed with human full-length HSP90 (Homo sapiens, UniProt P08238)?
> 10 µM

Given the entry CCN(CC)CCON=C(c1ccc2c(c1)OCO2)c1nc(N)nc2sc(C(=O)NCCN(C)C)cc12 , what IC50 was observed with human full-length HSP90 (Homo sapiens, UniProt P08238)?
> 10 µM

Others:
Given the entry CN(C)CCNC(=O)c1cc2c(C(=NOCCN3CCCC3=O)c3ccc4c(c3)OCO4)nc(N)nc2s1 , what IC50 was observed with human full-length HSP90 (Homo sapiens, UniProt P08238)?
> 10 µM

Given the entry CC(C)NC(=O)c1cc2c(C(=NOCCN3CCCC3)c3ccc4c(c3)OCO4)nc(N)nc2s1 , what IC50 was observed with human full-length HSP90 (Homo sapiens, UniProt P08238)?
< 10 µM

Given the entry CC(C)NC(=O)c1cc2c(C(=NOCCN3CCCC3=O)c3ccc4c(c3)OCO4)nc(N)nc2s1 (mixture of isomers) , what IC50 was observed with human full-length HSP90 (Homo sapiens, UniProt P08238)?
< 10 µM

Given the entry CCN(CC)CCON=C(c1ccc2c(c1)OCO2)c1nc(N)nc2sc(C(=O)NCCOC)cc12 , what IC50 was observed with human full-length HSP90 (Homo sapiens, UniProt P08238)?
< 10 µM

Given the entry CCNC(=O)c1cc2c(C(=NOCCN(CC)CC)c3ccc(OC)cc3)nc(N)nc2s1 , what IC50 was observed with human full-length HSP90 (Homo sapiens, UniProt P08238)?
< 10 µM
